Data credit: ChEMBL document CHEMBL1133373

Please provide measured IC50 for the entries that follow.
# study-system: Human immunodeficiency virus type 1 integrase (Human immunodeficiency virus 1, UniProt Q7ZJM1)
# Sequence (Q7ZJM1 whole entry): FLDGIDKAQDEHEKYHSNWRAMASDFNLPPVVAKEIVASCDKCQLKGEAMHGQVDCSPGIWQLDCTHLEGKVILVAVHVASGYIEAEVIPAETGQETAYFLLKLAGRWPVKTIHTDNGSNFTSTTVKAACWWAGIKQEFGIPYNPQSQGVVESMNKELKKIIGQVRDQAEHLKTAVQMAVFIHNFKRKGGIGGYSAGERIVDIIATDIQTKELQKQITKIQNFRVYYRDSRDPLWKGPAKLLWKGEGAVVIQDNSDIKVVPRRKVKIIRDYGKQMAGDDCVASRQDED
Numbers only, in µM.

Example results:
{"columns": ["molecule", "result-units", "IC50"],
 "data": [
  ["C=C(CO)[C@@H]1C[C@@]2(C)C(=C[C@H]1O)[C@H](OC(=O)/C(C)=C/C(C)CCCC)CC[C@@H]2C(=O)O (some centres undefined)", "µM", 73],
  ["CCCCC(C)/C=C(\\C)C(=O)O (centres undefined)", "µM", 12],
  ["CCCCC(C)/C=C(\\C)C(=O)O[C@@H]1CC[C@H](C(=O)O)[C@@]2(C)CC([C@@H](C)C=O)C(=O)C=C12 (some centres undefined)", "µM", 11]
]}

We next turn to a different molecule, shown below.
In: Quick one: IC50 of C=C(C=O)[C@@H]1C[C@@]2(C)C(=CC1=O)[C@H](OC(=O)/C(C)=C/C(C)CCCC)CC[C@@H]2C(=O)N[C@@H](CC(C)C)C(=O)OC (some centres undefined) ?
Out: 3
